Property label: melting point

Specify melting point for Cc1nc(-c2cccc3c2C2(COc4cc5c(cc42)OCCO5)C(=O)N3C)no1 (centres unmarked) [Example 16.74] and stop. 199 to 201 °C

Specify melting point for Cc1ccc(NC(=O)c2ccccc2CN2C(=O)C3(COc4cc5c(cc43)CCO5)c3ccccc32)c(C)c1 (centres unmarked) [Example 12.10] and stop. 207 to 208 °C

Specify melting point for O=C1N(Cc2ccc(C(F)(F)F)o2)c2ccccc2[C@@]12COc1cc3c(cc12)OCCO3 [Example 4.49] and stop. 64 to 68 °C

Specify melting point for O=C1N(Cc2noc(C(F)(F)F)n2)c2cccc(Cl)c2C12COc1cc3c(cc12)OCO3 (centres unmarked) [Example 11.19] and stop. 138 to 140 °C

Specify melting point for COc1cc(OC)c2c(c1)N(Cc1ccccn1)C(=O)C21COc2cc3c(cc21)OCCO3 (centres unmarked) [Example 9.74] and stop. 187 to 188 °C

Specify melting point for COc1ccc2c(c1)OCC21C(=O)N(Cc2cccnc2)c2ccccc21 (centres unmarked) [Example 9.34] and stop. 164 to 165 °C

Specify melting point for COc1ccc(CN2C(=O)C3(COc4cc(O)c(C#N)cc43)c3ccccc32)cc1 (centres unmarked) [Example 2.39] and stop. 112 to 114 °C

Specify melting point for N#Cc1cc2c(cc1F)OCC21C(=O)N(Cc2ccccn2)c2ccccc21 (centres unmarked) [Example 9.48] and stop. 108 to 109 °C

###

biological target: CYP3A4 (Homo sapiens, UniProt P08684); test: Cytochrome P450 (CYP450) Inhibition Assay, CYP3A4 (Vivid fluorescence, BOMCC substrate); conditions: human, P450 Baculosomes (recombinant CYP3A4), probe BOMCC (Vivid substrate)
Sequence (P08684 whole entry): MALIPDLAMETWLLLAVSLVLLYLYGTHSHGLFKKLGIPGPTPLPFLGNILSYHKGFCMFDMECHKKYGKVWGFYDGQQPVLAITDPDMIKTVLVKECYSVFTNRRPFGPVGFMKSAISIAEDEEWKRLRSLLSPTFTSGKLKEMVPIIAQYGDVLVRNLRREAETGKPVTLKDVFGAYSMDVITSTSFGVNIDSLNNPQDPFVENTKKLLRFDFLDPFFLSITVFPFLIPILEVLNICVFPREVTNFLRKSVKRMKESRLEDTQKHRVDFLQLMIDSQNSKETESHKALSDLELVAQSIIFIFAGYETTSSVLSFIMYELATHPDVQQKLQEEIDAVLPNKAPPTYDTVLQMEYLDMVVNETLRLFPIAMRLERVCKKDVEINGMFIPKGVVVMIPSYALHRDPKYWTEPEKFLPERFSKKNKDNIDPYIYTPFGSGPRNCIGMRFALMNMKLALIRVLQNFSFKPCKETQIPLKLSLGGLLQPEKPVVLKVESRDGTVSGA
Property label: inhibition at 10 µM

Specify inhibition at 10 µM for O=C1N(C(c2ccccc2)c2ccccc2)c2ccccc2C12COc1cc(F)c(F)cc12 (stereo not shown) and stop. < 50%

Specify inhibition at 10 µM for COC(=O)c1ccc(CN2C(=O)C3(COc4cc5c(cc43)CCO5)c3ccccc32)o1 (stereo not shown) and stop. > 50%

Specify inhibition at 10 µM for CC(C)CCNCCCN1C(=O)C2(COc3cc4c(cc32)CCO4)c2ccccc21.Cl (stereo not shown) [Example 15.1, hydrochloride] and stop. > 50%

Specify inhibition at 10 µM for NC(=O)c1cccc(CN2C(=O)C3(COc4cc5c(cc43)OCCO5)c3ccccc32)c1 (stereo not shown) and stop. > 50%

###

Property label: melting point

Specify melting point for O=C1N(Cc2nc(C(F)(F)F)cs2)c2ccccc2C12COc1cc3c(cc12)OCCO3 (stereo not shown) and stop. 169 to 170 °C

Specify melting point for CCCCCCNC(=O)c1cccc2c1C1(COc3cc4c(cc31)OCCO4)C(=O)N2C (stereo not shown) and stop. 172 to 173 °C

Specify melting point for O=C1N(Cc2ccccn2)c2ccccc2[C@]12COc1cc3c(cc12)OCCO3 and stop. 144 to 146 °C

Specify melting point for COc1ccc(CN2C(=O)C3(COc4cc5c(cc43)OCCO5)c3ccccc32)cc1OC (stereo not shown) and stop. 209 to 211 °C

###

biological target: CYP3A4 (Homo sapiens); experiment: Cytochrome P450 (CYP450) Inhibition Assay, CYP3A4 (Vivid fluorescence, BOMCC substrate); settings: human, P450 Baculosomes (recombinant CYP3A4), probe BOMCC (Vivid substrate)
Property label: inhibition at 10 µM

Enter measured inhibition at 10 µM, system CYP3A4 (Homo sapiens), for the molecule shown: Cc1cccc(NC(=O)c2ccccc2CN2C(=O)C3(COc4cc5c(cc43)CCO5)c3ccccc32)c1C (centres unmarked) > 50%

Enter measured inhibition at 10 µM, system CYP3A4 (Homo sapiens), for the molecule shown: CCN1CCC(CN2C(=O)C3(COc4cc5c(cc43)CCO5)c3ccccc32)CC1 (centres unmarked) > 50%

Enter measured inhibition at 10 µM, system CYP3A4 (Homo sapiens), for the molecule shown: CCCCCCC(=O)Nc1cccc2c1C1(COc3cc4c(cc31)OCCO4)C(=O)N2C (centres unmarked) > 50%

Enter measured inhibition at 10 µM, system CYP3A4 (Homo sapiens), for the molecule shown: COC(=O)c1coc(CN2C(=O)C3(COc4cc5onc(C)c5cc43)c3ccccc32)n1 (centres unmarked) < 50%

Enter measured inhibition at 10 µM, system CYP3A4 (Homo sapiens), for the molecule shown: Cc1cc2c(cc1C)C1(CO2)C(=O)N(CC2CCCCO2)c2ccccc21 (centres unmarked) > 50%

Enter measured inhibition at 10 µM, system CYP3A4 (Homo sapiens), for the molecule shown: O=C1N(Cc2ccccc2CF)c2ccccc2C12COc1cc3c(cc12)OCCO3 (centres unmarked) > 50%

Enter measured inhibition at 10 µM, system CYP3A4 (Homo sapiens), for the molecule shown: CC(C)OCCCNC(=O)CN1C(=O)C2(COc3cc4c(cc32)CCO4)c2ccccc21 (centres unmarked) > 50%

Enter measured inhibition at 10 µM, system CYP3A4 (Homo sapiens), for the molecule shown: O=C1N(Cc2cnc(Cl)s2)c2ccccc2C12COc1cc3c(cc12)OCO3 (centres unmarked) > 50%

Enter measured inhibition at 10 µM, system CYP3A4 (Homo sapiens), for the molecule shown: O=C1N(Cc2ncccn2)c2ccccc2C12COc1cc3c(cc12)OCCO3 (centres unmarked) < 50%

Enter measured inhibition at 10 µM, system CYP3A4 (Homo sapiens), for the molecule shown: O=C1N(Cc2cccc(Cl)n2)c2ccccc2C12COc1cc3c(cc12)OCCO3 (centres unmarked) > 50%

Enter measured inhibition at 10 µM, system CYP3A4 (Homo sapiens), for the molecule shown: COCCOc1ccc2c(c1)OCC21C(=O)N(Cc2ccccn2)c2ccccc21 (centres unmarked) < 50%

Enter measured inhibition at 10 µM, system CYP3A4 (Homo sapiens), for the molecule shown: CC(C)c1nc(CN2C(=O)C3(COc4cc5c(cc43)OCO5)c3ccccc32)no1 (centres unmarked) > 50%

Enter measured inhibition at 10 µM, system CYP3A4 (Homo sapiens), for the molecule shown: CN(C)c1ccc(-c2cccc3c2C2(COc4cc5c(cc42)CCO5)C(=O)N3Cc2ccc(C(F)(F)F)o2)cn1 (centres unmarked) > 50%

Enter measured inhibition at 10 µM, system CYP3A4 (Homo sapiens), for the molecule shown: O=C1N(Cc2cc(Br)no2)c2ccccc2C12COc1cc3c(cc12)CCO3 (centres unmarked) > 50%

Enter measured inhibition at 10 µM, system CYP3A4 (Homo sapiens), for the molecule shown: O=C1N(C[C@H]2COCCO2)c2ccccc2[C@@]12COc1cc3c(cc12)OCCO3 < 50%

Enter measured inhibition at 10 µM, system CYP3A4 (Homo sapiens), for the molecule shown: O=C1N(Cc2cccc(O)c2)c2ccccc2C12COc1cc3c(cc12)CCO3 (centres unmarked) > 50%

Enter measured inhibition at 10 µM, system CYP3A4 (Homo sapiens), for the molecule shown: CC(=O)N1C(=O)C2(COc3cc4c(cc32)OCCO4)c2ccccc21 (centres unmarked) < 50%
